B1: tRNA (parent)
chain: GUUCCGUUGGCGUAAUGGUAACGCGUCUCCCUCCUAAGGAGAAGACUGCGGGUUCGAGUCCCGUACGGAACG

Variants of: B1
Assay comment: yeast fitness relative to wild type (ratio to wild type); higher = fitter; tRNA-Arg(CCU), competitive growth, 37 C, YPD
This sample holds only a part of the variants without activity.
Property name: yeast fitness
When you answer, write just the number.

Below, 5 variants whose answers are already recorded.
A14C G44C A70C; 0.56
C29G U59G U64C; 0.549
A14C A69G; 0.692
U8A C30A A37G C46U A57C; 0.579
C4G C11U A69U; 0.539

Now turn to the next variant.
Request: What does the record list as yeast fitness for U16C G44A ?
Result: 1.06

The reported measurements were obtained from the RNAGym collection of RNA variant scans (doi:10.1126/science.aae0568).
